- TARGET_UNDER_TEST: HLA-A*6802 (Homo sapiens, UniProt P04439, A269V/D140Y/D185E/E176V/E277Q/E87N/F33Y/G231S/I121R/I166T/I218V/L180W/L300P/L318F/N151K/P208A/P217A/Q86R/R138H/R169H/S129P/T345S/V36M)
- ASSAY_NOTES: purified HLA class I binding assay, A*6802
No end group written: not given here.
READOUT_NAME: IC50 (µM)
Express it in µM; write the number only.

QUERY: Requested read-out: IC50. Entry: FLGAAGSTM [1211.05]
RESULT: 66.7

QUERY: If you can, please state the reported IC50 value of WMTNNPPIPV [25.0139] .
RESULT: 2.22

====

- TARGET_UNDER_TEST: HLA-DRB1*1501 (DR2w2β1) (Homo sapiens, UniProt P01903+P01911)
- Construct: expressed in transfected cells
- ASSAY_NOTES: purified HLA class II binding assay, DRB1*1501 (DR2w2β1)
No end group written: not given here.
READOUT_NAME: pIC50
Value format note: pIC50 is -log10 of concentration (mol/L); just state the number.

[[record]]
chain_sequence = "QHLLQLTVWGIKQLQ [Peptide 27.0297]"
test_result = 7.68


QUERY: Reported pIC50, sequence QKQITKIQNFRVYYR [Peptide 27.0377] : ____
RESULT: 8.47

====

pIC50 values by entry
- TARGET_UNDER_TEST: HLA-A*0206 (Homo sapiens, UniProt P04439, D140Y/D185E/D98H/E176V/E277Q/F33Y/G131W/G231S/I119V/I121R/I166T/I218V/L300P/L318F/N151K/N90K/P208A/P217A/Q86G/Q94H/R138H/R169H/T345S)
- ASSAY_NOTES: purified HLA class I binding assay, A*0206
Scale: pIC50 equals -log10([C]), with [C] in mol/L.

Sample answers from the record:
[[record]]
compound = "CSCC[C@H](N)C(=O)N[C@@H](C)C(=O)N[C@@H](CO)C(=O)N[C@@H](CC(=O)O)C(=O)N[C@@H](Cc1ccccc1)C(=O)N[C@@H](CC(N)=O)C(=O)N[C@@H](CC(C)C)C(=O)N1CCC[C@H]1C(=O)N1CCC[C@H]1C(=O)N[C@H](C(=O)O)C(C)C [Peptide 1261.15]"
readout_name = "pIC50"
test_result = 7.47

[[record]]
compound = "CC(C)C[C@H](NC(=O)[C@H](CCCCN)NC(=O)[C@H](Cc1ccccc1)NC(=O)[C@H](CS)NC(=O)[C@H](Cc1c[nH]c2ccccc12)NC(=O)CNC(=O)[C@H](Cc1ccccc1)NC(=O)[C@@H](NC(=O)[C@H](CC(C)C)NC(=O)[C@@H]1CCCN1)[C@@H](C)O)C(=O)O [25.0142]"
readout_name = "pIC50"
test_result = 5.43

[[record]]
compound = "CC[C@H](C)[C@H](NC(=O)CNC(=O)[C@H](C)NC(=O)[C@H](Cc1c[nH]c2ccccc12)NC(=O)[C@H](Cc1c[nH]c2ccccc12)NC(=O)[C@H](CS)NC(=O)[C@H](C)NC(=O)[C@H](C)NC(=O)[C@@H](N)CCCCN)C(=O)O [Peptide 1261.07]"
readout_name = "pIC50"
test_result = 6.79


We now examine a further compound.
QUERY: For the compound CC[C@H](C)[C@H](NC(=O)[C@H](Cc1ccccc1)NC(=O)[C@H](CC(C)C)NC(=O)[C@H](CC(C)C)NC(=O)[C@H](CCC(N)=O)NC(=O)[C@H](CCC(N)=O)NC(=O)[C@H](CC(C)C)NC(=O)[C@@H](NC(=O)[C@@H](N)CCCNC(=N)N)[C@@H](C)CC)C(=O)O [Peptide 1261.12] , what pIC50 is on record?
RESULT: 7.43

====

- TARGET_UNDER_TEST: HLA-DRB1*1101 (DR5w11) (Homo sapiens, UniProt P01903+P01911, A100R/A169T/A87E/I96F/K41T/L162R/M171V/P40S/Q125H/Q178H/Q39Y/Q99D/R42S/S66Y/T262R/V115G/W38E)
- Construct: endogenous in cells
- Sequence (P01903 26-254, other chains not shown): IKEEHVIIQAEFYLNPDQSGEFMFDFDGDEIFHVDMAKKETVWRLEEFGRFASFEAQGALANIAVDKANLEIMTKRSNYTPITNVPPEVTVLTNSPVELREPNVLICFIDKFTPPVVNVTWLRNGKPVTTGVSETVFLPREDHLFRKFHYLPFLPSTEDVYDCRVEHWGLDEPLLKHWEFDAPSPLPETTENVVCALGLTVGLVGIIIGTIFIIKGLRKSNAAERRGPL
- ASSAY_NOTES: biochemical
- Type: binding
READOUT_NAME: DR5w11 binding

[[record]]
chain_sequence = "ASGYIEAEVIPAFTG"
test_result = 0.0020

[[record]]
chain_sequence = "VIFMFSALSEGATPQ"
test_result = "−0.0010"

[[record]]
chain_sequence = "QQHLLQLTVWGTKQL"
test_result = 0.0036

[[record]]
chain_sequence = "VTVYYGVPVWKEATI"
test_result = 0.0021


Could you now look at the following sequence, please?
QUERY: Could you tell me which DR5w11 binding is on file for SPEVIFMFSALSEGA ?
RESULT: 0.0075

====

- TARGET_UNDER_TEST: HLA-B*0702 (Homo sapiens, UniProt P01889)
- Construct: endogenous in cells; host or cells: GM3107
- ASSAY_NOTES: purified HLA class I binding assay, B*0702
- MEASUREMENT_PARAMETERS: HIV B07 supermotif peptides; binding value for purified HLA-B*0702, unit not given
READOUT_NAME: B*0702 (binding information)

[[record]]
chain_sequence = "LPEKDSWTV"
target_under_test = "HLA-B*0702 (Homo sapiens, UniProt P01889)"
readout_name = "B*0702 (binding information)"
test_result = 0.0001

[[record]]
chain_sequence = "TPPLVKLWYQ"
target_under_test = "HLA-B*0702 (Homo sapiens, UniProt P01889)"
readout_name = "B*0702 (binding information)"
test_result = 0.0001

[[record]]
chain_sequence = "EPIVGAEIP"
target_under_test = "HLA-B*0702 (Homo sapiens, UniProt P01889)"
readout_name = "B*0702 (binding information)"
test_result = 0.0001

[[record]]
chain_sequence = "NPDIVIYQYM"
target_under_test = "HLA-B*0702 (Homo sapiens, UniProt P01889)"
readout_name = "B*0702 (binding information)"
test_result = 0.0005

[[record]]
chain_sequence = "IIPDKWTVQPI"
target_under_test = "HLA-B*0702 (Homo sapiens, UniProt P01889)"
readout_name = "B*0702 (binding information)"
test_result = 0.0012

[[record]]
chain_sequence = "SPTRKELQVW"
target_under_test = "HLA-B*0702 (Homo sapiens, UniProt P01889)"
readout_name = "B*0702 (binding information)"
test_result = 0.0025

[[record]]
chain_sequence = "GPKVKQWPL"
target_under_test = "HLA-B*0702 (Homo sapiens, UniProt P01889)"
readout_name = "B*0702 (binding information)"
test_result = 0.0150

[[record]]
chain_sequence = "EPFKNLKTGK"
target_under_test = "HLA-B*0702 (Homo sapiens, UniProt P01889)"
readout_name = "B*0702 (binding information)"
test_result = 0.0001

[[record]]
chain_sequence = "IIPRISSEVHI"
target_under_test = "HLA-B*0702 (Homo sapiens, UniProt P01889)"
readout_name = "B*0702 (binding information)"
test_result = 0.0330

[[record]]
chain_sequence = "TPGIRYQYNV"
target_under_test = "HLA-B*0702 (Homo sapiens, UniProt P01889)"
readout_name = "B*0702 (binding information)"
test_result = 0.0004


QUERY: Param item = NPQSQGVVES ; retrieve measured B*0702 (binding information).
RESULT: 0.0001

QUERY: Recorded B*0702 (binding information) for EPPFLWMGYE , please?
RESULT: 0.0001

QUERY: Value lookup for B*0702 (binding information); key = EPVDPRLEPW
RESULT: 0.0001

====

- TARGET_UNDER_TEST: HLA-A*6801 (Homo sapiens, UniProt P04439, A269V/D185E/E176V/E277Q/E87N/F33Y/G231S/I121M/I166T/I218V/L180W/L300P/L318F/N151K/P208A/P217A/Q86R/R169H/T345S)
- ASSAY_NOTES: purified HLA class I binding assay, A*6801
- MEASUREMENT_PARAMETERS: HIV A03 supermotif peptides, Table IX; unit not given
READOUT_NAME: A*6801 binding information
// print number alone

[[record]]
chain_sequence = "TVQCTIIGIK"
test_result = 0.0190

[[record]]
chain_sequence = "TVQCTIIGIR"
test_result = 0.0120


QUERY: Entry QARYLAVER : reported A*6801 binding information = ?
RESULT: 0.0007

QUERY: // returns reported A*6801 binding information for input QMVIIQAISPR
RESULT: 0.0430

These entries and their values trace back to patent US20050271676A1.
